Source of measurements: the supplement of paper PMC9262897

- System: E. coli TESEC Mtb Alr
- run_description: growth (OD600 after 10 h); higher = more growth (less inhibition)
- protocol_conditions: arabinose 100000 nM; compound 0.1 mM; raw OD600 reference: median of DMSO wells 0.201, cell-free background 0.041
Counter-ions that a name gives are not always drawn.

| compound | growth |
| --- | --- |
| COc1c2occc2c(OC)c2c(=O)cc(C)oc12 | 0.189 |
| COC(=O)[C@@H]1[C@H]2C[C@H]3c4[nH]c5ccccc5c4CCN3C[C@@H]2CC[C@@H]1O [Yohimbine hydrochloride] | 0.176 |
| CC(=O)OC[C@H]1O[C@@H]([S-])[C@H](OC(C)=O)[C@@H](OC(C)=O)[C@@H]1OC(C)=O.CCP(CC)CC.[Au+] | 0.0634 |
| CC(=O)SCC(Cc1ccccc1)C(=O)NCC(=O)OCc1ccccc1 (stereo not given) | 0.23 |
| COc1ccc([C@@H]2CC(=O)c3c(O)cc(O[C@@H]4O[C@H](CO[C@@H]5O[C@@H](C)[C@H](O)[C@@H](O)[C@H]5O)[C@@H](O)[C@H](O)[C@H]4O)cc3O2)cc1O | 0.205 |
| CN(c1nccc(=O)[nH]1)C1CCN(c2nc3ccccc3n2Cc2ccc(F)cc2)CC1 | 0.215 |
| C[C@]12C=CC(=O)C=C1CC[C@H]1[C@@H]3C[C@@H](O)[C@](O)(C(=O)CO)[C@@]3(C)C[C@H](O)[C@@]12F | 0.157 |
| COc1cccc2c1C(=O)c1c(O)c3c(c(O)c1C2=O)C[C@@](O)(C(C)=O)C[C@@H]3O[C@H]1C[C@H](N)[C@H](O)[C@H](C)O1 [Daunorubicin hydrochloride] | 0.0446 |
| CCOC(=O)O[C@]1(C(=O)OCCl)CC[C@H]2[C@@H]3CCC4=CC(=O)C=C[C@]4(C)[C@H]3[C@@H](O)C[C@@]21C [Loteprednol etabonate] | 0.196 |
| CCCCCCCCCCCCCCCC[N+](C)(C)CCN(Cc1ccc(OC)cc1)c1ncccn1 [Thonzonium bromide] | 0.0909 |
| CN(C)/N=N/c1[nH]cnc1C(N)=O | 0.197 |
| Nc1cc(-c2ccncc2)c[nH]c1=O | 0.193 |
| N#CC(c1ccc(Cl)cc1)c1c(Cl)cc(-n2ncc(=O)[nH]c2=O)cc1Cl (stereo not given) | 0.0425 |
| CO[C@@]1(NC(=O)C2SC(=C(C(N)=O)C(=O)O)S2)C(=O)N2C(C(=O)O)=C(CSc3nnnn3C)CS[C@@H]21 (stereo not given in full) | 0.0376 |
| NC(=O)c1ncn([C@@H]2O[C@H](CO)[C@@H](O)[C@H]2O)n1 | 0.117 |

----------
Listed compounds paired with reported growth
- System: E. coli TESEC Mtb Alr
- run_description: growth (OD600 after 10 h); higher = more growth (less inhibition)
- protocol_conditions: arabinose 1000000 nM; compound 0.1 mM; raw OD600 reference: median of DMSO wells 0.193, cell-free background 0.041
Where a name gives a salt, the structure may show the parent alone.

| compound | growth |
| --- | --- |
| COc1cc2nc(N3CCN(C(=O)c4ccco4)CC3)nc(N)c2cc1OC [Prazosin hydrochloride] | 0.147 |
| CCC1(c2ccccc2)C(=O)NCNC1=O | 0.18 |
| CC(=O)OCC(=O)[C@@]1(O)CC[C@H]2[C@@H]3CCC4=CC(=O)C=C[C@]4(C)[C@@]3(F)[C@@H](O)C[C@@]21C [Isoflupredone acetate] | 0.128 |
| CCC(Cc1c(I)cc(I)c(N)c1I)C(=O)O (configuration not stated) | 0.0566 |
| COc1ccccc1Oc1c(NS(=O)(=O)c2ccc(C(C)(C)C)cc2)nc(-c2ncccn2)nc1OCCO | 0.103 |
| Cc1c(N)c(=O)n(-c2ccccc2)n1C | 0.187 |
| O=S(=O)(O)c1cc(O)ccc1O [Ethamsylate] | 0.182 |
| CCN(CC)C(C)CN1c2ccccc2Sc2ccccc21 (configuration not stated) [Ethopropazine hydrochloride] | 0.135 |
| CNCCC(Oc1ccc(C(F)(F)F)cc1)c1ccccc1 (configuration not stated) [Fluoxetine hydrochloride] | 0.0486 |
| CC(C)Cn1cnc2c(N)nc3ccccc3c21 | 0.178 |
| c1ccc2c(c1)CCCc1cc(NCCN3CCOCC3)nnc1-2 | 0.149 |
| O=c1n(CCCN2CCN(c3cccc(Cl)c3)CC2)nc2ccccn12 [Trazodone hydrochloride] | 0.105 |
| Cn1c(=O)c2c(ncn2C)n(C)c1=O | 0.215 |
| O=c1[nH]cc(F)c(=O)[nH]1 | 0.0827 |
| CC1=C(/C=C/C(C)=C/C=C/C(C)=C\C(=O)O)C(C)(C)CCC1 | 0.11 |
| CC(C)(Oc1ccc(Cl)cc1)C(=O)O | 0.171 |
| CC1(O)CCOC(=O)C1 (configuration not stated) | 0.203 |
| CC[N+](C)(C)Cc1ccccc1Br [Bretylium tosylate] | 0.173 |
| CN[C@@H]1[C@H](O[C@H]2[C@H](O[C@H]3[C@H](O)[C@@H](O)[C@H](NC(=N)N)[C@@H](O)[C@@H]3NC(=N)N)O[C@@H](C)[C@]2(O)CO)O[C@@H](CO)[C@H](O)[C@H]1O [Dihydrostreptomycin sulfate] | 0.0395 |
| CC[C@H](C)[C@H]1O[C@]2(CC[C@@H]1C)C[C@@H]1C[C@@H](CC=C(C)C(O[C@H]3C[C@H](OC)[C@@H](O[C@H]4C[C@H](OC)[C@@H](O)[C@H](C)O4)[C@H](C)O3)[C@@H](C)C=CC=C3CO[C@@H]4[C@H](O)C(C)=C[C@@H](C(=O)O1)[C@]34O)O2 (some centres not stated) | 0.209 |
| CCN(CC)CC#CCOC(=O)C(O)(c1ccccc1)C1CCCCC1 (configuration not stated) [Oxybutynin chloride] | 0.0668 |
| CC(C(=O)O)c1ccc(C(=O)c2ccccc2)s1 (configuration not stated) | 0.205 |
| CCc1ccc(CCOc2ccc(CC3SC(=O)NC3=O)cc2)nc1 (configuration not stated) | 0.164 |
| CCn1cc(C(=O)O)c(=O)c2cc(F)c(N3CCNCC3)nc21 | 0.0411 |
| C[C@H]1O[C@H](O[C@H]2[C@H](O)[C@@H](O)[C@@H](O[C@@H]([C@H](O)[C@@H](O)C=O)[C@H](O)CO)O[C@@H]2CO)[C@H](O)[C@@H](O)[C@@H]1N[C@H]1C=C(CO)[C@@H](O)[C@H](O)[C@H]1O | 0.182 |
| C[C@]12CC[C@@H]3c4ccc(O)cc4CC[C@H]3[C@@H]1CC[C@@H]2O | 0.129 |
| COc1ccc2c(c1)c(CC(=O)OCC(=O)O)c(C)n2C(=O)c1ccc(Cl)cc1 | 0.109 |
| C=C1C[C@H]2[C@@H]3C=C(C)C4=CC(=O)CC[C@]4(C)[C@H]3CC[C@]2(C)[C@@]1(OC(C)=O)C(C)=O [Melengestrol acetate] | 0.176 |
| Cc1c(N(C)CS(=O)(=O)O)c(=O)n(-c2ccccc2)n1C | 0.169 |
| CC1CNc2c(cccc2S(=O)(=O)N[C@@H](CCCNC(=N)N)C(=O)N2CC[C@@H](C)C[C@@H]2C(=O)O)C1 (some centres not stated) | 0.182 |
| COC(=O)Nc1nc2cc(C(=O)c3ccccc3)ccc2[nH]1 | 0.168 |
| CCOc1ccccc1OCC1CNCCO1 (configuration not stated) [Viloxazine hydrochloride] | 0.196 |
